Tested on: HCC2998 colon cancer cell line
Method summary: MTT cell cytotoxicity assay, HCC2998
Assay type: cell-based, human
Study conditions: 72 h exposure, read-out: Cytotoxicity (IC50s)
Readout kind: IC50 (µM)
One number for each entry, in µM.

IN: Print HCC2998 colon cancer cell line IC50 for `C[C@H]1O[C@@H](n2cc(F)c(=O)[nH]c2=O)[C@H](O)[C@@H]1O` .
OUT: 34

---

Tested on: OVCAR3 ovarian cancer cell line
Method summary: MTT cell cytotoxicity assay, OVCAR3
Assay type: cell-based, human
Study conditions: 72 h exposure, read-out: Cytotoxicity (IC50s)
Readout kind: IC50 (µM)
Numbers only, in µM.

IN: Note down IC50 recorded for `C[C@H]1O[C@@H](n2cc(F)c(=O)[nH]c2=O)[C@H](O)[C@@H]1O`
OUT: 230

---

Kindly supply the reported IC50 values for the records listed here.
Test system: HT29 colon cancer cell line
Method summary: MTT cell cytotoxicity assay, HT29
Format: cell-based, human
Study conditions: Homo sapiens, HT-29, 72 h, 72 h exposure, read-out: Cytotoxicity (IC50s)
Answers are plain numbers, in nM.

The examples below pair each entry with its known result.
- O=c1[nH]cc(F)c(=O)[nH]1: 3000
- Nc1nc2[nH]cc(CCc3ccc(C(=O)N[C@@H](CCC(=O)O)C(=O)O)cc3)c2c(=O)[nH]1: 23

Now look at this one.
IN: Give recorded IC50. CN(Cc1cnc2nc(N)nc(N)c2n1)c1ccc(C(=O)N[C@@H](CCC(=O)O)C(=O)O)cc1 [Methotrexate]
OUT: 220

---

So I've got a bunch of compounds here, and I need their pIC50 values.
Test system: IGROV1 ovarian cancer cell line
Method summary: MTT cell cytotoxicity assay, IGROV1
Format: cell-based, human
Study conditions: 72 h exposure, read-out: Cytotoxicity (IC50s)
Description: A panel of colon (HT29, HCT116, COLO205, HCC2998), breast (MCF7, MDA-MB-435), lung (HOP62, HOP92), ovarian (OVCAR3, IGROV1), prostate (DU145, PC3), and head and neck (SCC61, HEP2, SQ20B) human cancer cell lines was purchased from the ATCC (Rockville, Md.) and National Cancer Institute collections. […] Cell viability was determined using the MTT assay, which was carried out as described previously (Hansen, 1989). […]
Give bare numbers, as −log10 of the molar value.

- C[C@H]1O[C@@H](n2cc(F)c(=O)[nH]c2=O)[C@H](O)[C@@H]1O: 4.54

Moving on to another compound below.
IN: Fill in pIC50 for record C#CCC(Cc1cnc2nc(N)nc(N)c2n1)c1ccc(C(=O)N[C@@H](CCC(=O)O)C(=O)O)cc1 (mixture of isomers) [Pralatrexate]
OUT: 7.10

---

Test system: DU145 prostate cancer cell line
Method summary: MTT cell cytotoxicity assay, DU145
Format: cell-based, human
Study conditions: Homo sapiens, DU-145, 72 h, naïve/parental, 72 h exposure, read-out: Cytotoxicity (IC50s)
What pIC50 was measured for each of the following?
One number for each entry, as −log10 of the molar value.

Consider the reported pIC50 for these molecules:
- Nc1nc2[nH]cc(CCc3ccc(C(=O)N[C@@H](CCC(=O)O)C(=O)O)cc3)c2c(=O)[nH]1: 7.32
- CN(Cc1cnc2nc(N)nc(N)c2n1)c1ccc(C(=O)N[C@@H](CCC(=O)O)C(=O)O)cc1 [Methotrexate]: 6.52

Then this molecule:
IN: Return value of pIC50 for input `O=c1[nH]cc(F)c(=O)[nH]1` , no commentary.
OUT: 5.15

Hey, just so you know, these numbers are from patent US20130143891A1.
